B1: LINE1-full (parent)
chain: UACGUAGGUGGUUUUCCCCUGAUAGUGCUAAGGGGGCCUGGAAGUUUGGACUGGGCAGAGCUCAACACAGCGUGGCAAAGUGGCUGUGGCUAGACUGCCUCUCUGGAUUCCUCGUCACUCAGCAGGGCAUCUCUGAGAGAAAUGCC

# Variants of: B1
# TEST: self-cleavage, relative activity (ratio to wild type); higher = more cleavage; in vitro, sequencing; the parent is a self-cleaving ribozyme
Classification field: Fulfilled = self-cleavage at or over 1; Not fulfilled = self-cleavage under 1.

Input: Could you please find out whether U96G A124G has self-cleavage that meets 1 or exceeds it?
Output: Not fulfilled

Input: Could you please find out whether G86A U134C has self-cleavage that meets 1 or exceeds it?
Output: Not fulfilled

Input: Could you please find out whether C68U U134A has self-cleavage that meets 1 or exceeds it?
Output: Not fulfilled

Input: Could you please find out whether A64G A69C has self-cleavage that meets 1 or exceeds it?
Output: Not fulfilled

Input: Could you please find out whether A79G A136G has self-cleavage that meets 1 or exceeds it?
Output: Fulfilled

New cases:
Input: Could you please find out whether U96C C120U has self-cleavage that meets 1 or exceeds it?
Output: Not fulfilled

Input: Could you please find out whether G75A U104A has self-cleavage that meets 1 or exceeds it?
Output: Not fulfilled

Input: Could you please find out whether U12A G53C has self-cleavage that meets 1 or exceeds it?
Output: Fulfilled
